Origin of the recorded values: patent US20250313635A1

Molecular target: hαvβ6 (Homo sapiens, UniProt P06756+P18564)
Construct: The full extracellular domains for all α and β integrin subunits; (GGGS)3 linker (C); acidic coiled-coil with cysteine (C); GG-Avitag (C); hexa-histidine tag (C); basic coiled-coil with cysteine (C); made in house; host or cells: Expi293 cells
Experiment: Human AlphaLISA integrin-ligand blocking assay (LAP)
Type: biochemical
Settings: Table 11; read-out: IC50 Human integrin AlphaLISA assays hαvβ6
valueKind: IC50 (nM)
Numbers only, in nM.

Exercise: # lookup: IC50 of `COc1ccc([C@H](CC(=O)O)N2CCN(CCCc3ccc4c(n3)NCCC4)C2=O)cn1`
Key: 0.5

----------
Molecular target: hα5β1 (Homo sapiens, UniProt P05556+P08648)
Construct: The full extracellular domains for all α and β integrin subunits; (GGGS)3 linker (C); acidic coiled-coil with cysteine (C); GG-Avitag (C); hexa-histidine tag (C); basic coiled-coil with cysteine (C); made in house; host or cells: Expi293 cells
Assay: Human AlphaLISA integrin-ligand blocking assay (fibronectin)
Type: biochemical
Conditions: FIG. 3D, curve-fitted; read-out: IC50 against human αvβ1 (as printed, sixth integrin listed), AlphaLISA
valueKind: IC50 (nM)
Answers are plain numbers, in nM.

Exercise: Name the reported IC50 value associated with the compound `COc1ccc([C@H](CC(=O)O)N2CCN(CCCc3ccc4c(n3)NCCC4)C2=O)cn1`
Key: 17.3

----------
Target: hαvβ8 (Homo sapiens, UniProt P06756+P26012)
Construct: The full extracellular domains for all α and β integrin subunits; (GGGS)3 linker (C); acidic coiled-coil with cysteine (C); GG-Avitag (C); hexa-histidine tag (C); basic coiled-coil with cysteine (C); made in house; host or cells: Expi293 cells
Test: Human AlphaLISA integrin-ligand blocking assay (LAP)
Type: biochemical
Conditions: FIG. 3D, curve-fitted; read-out: IC50 against human αvβ1 (as printed, fifth integrin listed), AlphaLISA
valueKind: pIC50
Answers are plain numbers, as −log10 of the molar value.

Exercise: Recorded pIC50 for `COc1ccc([C@H](CC(=O)O)N2CCN(CCCc3ccc4c(n3)NCCC4)C2=O)cn1` , please?
Key: 7.23

----------
Molecular target: hαvβ5 (Homo sapiens, UniProt P06756+P18084)
Construct: The full extracellular domains for all α and β integrin subunits; (GGGS)3 linker (C); acidic coiled-coil with cysteine (C); GG-Avitag (C); hexa-histidine tag (C); basic coiled-coil with cysteine (C); made in house; host or cells: Expi293 cells
Experiment: Human AlphaLISA integrin-ligand blocking assay (vitronectin)
Assay type: biochemical
Conditions: FIG. 3D, curve-fitted; read-out: IC50 against human αvβ5, AlphaLISA
valueKind: IC50 (nM)
One number for each entry, in nM.

Exercise: Entry COc1ccc([C@H](CC(=O)O)N2CCN(CCCc3ccc4c(n3)NCCC4)C2=O)cn1 [MK-0429] : reported IC50 = ?
Key: 9.9

----------
Target: mα5β1 (Mus musculus, UniProt P09055+P11688)
Construct: The full extracellular domains for all α and β integrin subunits; (GGGS)3 linker (C); acidic coiled-coil with cysteine (C); GG-Avitag (C); hexa-histidine tag (C); basic coiled-coil with cysteine (C)
Sequence (P11688 45-999 limits assumed): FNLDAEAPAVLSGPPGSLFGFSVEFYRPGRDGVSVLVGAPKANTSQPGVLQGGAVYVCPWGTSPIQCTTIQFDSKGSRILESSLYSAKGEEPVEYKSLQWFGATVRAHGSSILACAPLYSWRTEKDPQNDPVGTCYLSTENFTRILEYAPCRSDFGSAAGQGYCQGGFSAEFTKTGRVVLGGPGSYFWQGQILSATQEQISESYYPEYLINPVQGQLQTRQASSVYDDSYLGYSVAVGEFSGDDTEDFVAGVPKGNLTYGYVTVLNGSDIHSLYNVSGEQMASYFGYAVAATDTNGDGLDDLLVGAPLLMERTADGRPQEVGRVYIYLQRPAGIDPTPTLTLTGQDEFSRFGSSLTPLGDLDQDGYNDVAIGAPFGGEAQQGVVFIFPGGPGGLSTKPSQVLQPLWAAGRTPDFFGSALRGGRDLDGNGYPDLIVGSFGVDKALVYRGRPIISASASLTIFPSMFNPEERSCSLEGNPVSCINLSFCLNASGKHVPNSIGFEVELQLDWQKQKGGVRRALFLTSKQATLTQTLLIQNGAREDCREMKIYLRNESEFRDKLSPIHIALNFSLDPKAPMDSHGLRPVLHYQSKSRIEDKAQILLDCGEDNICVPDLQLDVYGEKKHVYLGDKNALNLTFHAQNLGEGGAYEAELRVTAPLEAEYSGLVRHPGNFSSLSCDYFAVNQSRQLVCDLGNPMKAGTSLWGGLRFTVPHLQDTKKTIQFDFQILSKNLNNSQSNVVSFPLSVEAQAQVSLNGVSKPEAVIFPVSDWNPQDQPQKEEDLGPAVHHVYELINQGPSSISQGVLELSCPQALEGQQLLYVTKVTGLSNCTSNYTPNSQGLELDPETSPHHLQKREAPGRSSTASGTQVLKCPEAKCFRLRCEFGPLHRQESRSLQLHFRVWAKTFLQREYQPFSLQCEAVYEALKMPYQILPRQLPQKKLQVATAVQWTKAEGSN
Sequence (P09055 21-728 limits assumed): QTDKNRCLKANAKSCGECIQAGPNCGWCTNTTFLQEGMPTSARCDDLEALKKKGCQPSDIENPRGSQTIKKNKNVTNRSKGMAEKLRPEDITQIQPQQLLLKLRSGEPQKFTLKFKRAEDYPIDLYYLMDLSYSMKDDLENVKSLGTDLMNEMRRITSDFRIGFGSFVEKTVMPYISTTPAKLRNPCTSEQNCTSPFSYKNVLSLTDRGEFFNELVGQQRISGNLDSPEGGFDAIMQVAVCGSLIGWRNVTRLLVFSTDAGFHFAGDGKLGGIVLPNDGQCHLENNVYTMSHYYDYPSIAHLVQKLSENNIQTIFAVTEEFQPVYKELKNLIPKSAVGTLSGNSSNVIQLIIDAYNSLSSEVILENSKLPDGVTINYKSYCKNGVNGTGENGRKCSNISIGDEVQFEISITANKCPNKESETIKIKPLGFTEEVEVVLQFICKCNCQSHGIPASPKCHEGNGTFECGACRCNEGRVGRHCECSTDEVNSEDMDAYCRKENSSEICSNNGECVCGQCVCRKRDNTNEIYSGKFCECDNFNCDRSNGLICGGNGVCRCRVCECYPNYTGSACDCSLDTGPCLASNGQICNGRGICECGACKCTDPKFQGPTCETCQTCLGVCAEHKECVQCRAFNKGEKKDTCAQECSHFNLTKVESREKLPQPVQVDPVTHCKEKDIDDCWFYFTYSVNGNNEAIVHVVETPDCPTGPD
Assay: Mouse AlphaLISA integrin-ligand blocking assay (fibronectin)
Conditions: Table 12; read-out: IC50 Mouse integrin AlphaLISA assays mα5β1
Procedure: Integrin AlphaLISA assay. In the AlphaLISA integrin assays, we used a HEPES based buffer (25 mM HEPES pH 7.4, 137 mM NaCl, 1 mM MgCl2, 1 mM MnCl2, 2 mM CaCl2, 2.7 mM KCl, and 0.05% Tween 20). Optimal assay conditions were determined with a titration of the reagents for signal noise ratio (S/N), linear range, etc. For the respective integrins, we used the final concentrations described in Table 9. […]
valueKind: IC50 (µM)
One number for each entry, in µM.

Exercise: IC50 lookup needed for `COc1ccc([C@H](CC(=O)O)N2CCN(CCCc3ccc4c(n3)NCCC4)C2=O)cn1` , thanks.
Key: 0.0503

----------
Target: mαvβ3 (Mus musculus, UniProt O54890+P43406)
Construct: The full extracellular domains for all α and β integrin subunits; (GGGS)3 linker (C); acidic coiled-coil with cysteine (C); GG-Avitag (C); hexa-histidine tag (C); basic coiled-coil with cysteine (C)
Sequence (P43406 31-988 limits assumed): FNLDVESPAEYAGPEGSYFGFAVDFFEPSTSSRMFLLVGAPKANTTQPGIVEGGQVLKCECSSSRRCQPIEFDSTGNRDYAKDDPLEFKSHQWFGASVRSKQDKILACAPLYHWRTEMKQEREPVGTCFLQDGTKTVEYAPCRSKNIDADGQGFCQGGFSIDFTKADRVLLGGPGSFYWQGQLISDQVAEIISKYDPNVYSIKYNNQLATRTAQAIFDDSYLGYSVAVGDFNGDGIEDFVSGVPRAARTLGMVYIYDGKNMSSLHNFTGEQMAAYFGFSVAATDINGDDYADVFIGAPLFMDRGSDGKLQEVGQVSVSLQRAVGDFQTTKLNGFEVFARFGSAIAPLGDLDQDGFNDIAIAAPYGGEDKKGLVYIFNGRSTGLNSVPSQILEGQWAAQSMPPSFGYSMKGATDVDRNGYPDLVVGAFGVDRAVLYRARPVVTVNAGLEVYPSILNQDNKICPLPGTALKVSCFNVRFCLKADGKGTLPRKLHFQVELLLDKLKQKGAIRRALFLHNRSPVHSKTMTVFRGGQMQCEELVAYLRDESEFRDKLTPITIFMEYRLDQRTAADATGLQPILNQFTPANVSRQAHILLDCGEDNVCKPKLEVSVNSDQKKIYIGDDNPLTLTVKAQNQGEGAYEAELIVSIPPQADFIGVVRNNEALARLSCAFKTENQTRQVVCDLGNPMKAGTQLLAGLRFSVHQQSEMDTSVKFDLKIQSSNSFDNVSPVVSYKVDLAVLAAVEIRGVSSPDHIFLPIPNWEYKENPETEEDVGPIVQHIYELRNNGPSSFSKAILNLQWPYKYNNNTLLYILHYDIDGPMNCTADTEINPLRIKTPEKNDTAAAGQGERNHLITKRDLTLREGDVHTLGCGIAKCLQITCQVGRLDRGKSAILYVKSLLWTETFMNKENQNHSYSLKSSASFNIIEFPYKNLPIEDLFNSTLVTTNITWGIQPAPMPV
Sequence (O54890 26-717 limits assumed): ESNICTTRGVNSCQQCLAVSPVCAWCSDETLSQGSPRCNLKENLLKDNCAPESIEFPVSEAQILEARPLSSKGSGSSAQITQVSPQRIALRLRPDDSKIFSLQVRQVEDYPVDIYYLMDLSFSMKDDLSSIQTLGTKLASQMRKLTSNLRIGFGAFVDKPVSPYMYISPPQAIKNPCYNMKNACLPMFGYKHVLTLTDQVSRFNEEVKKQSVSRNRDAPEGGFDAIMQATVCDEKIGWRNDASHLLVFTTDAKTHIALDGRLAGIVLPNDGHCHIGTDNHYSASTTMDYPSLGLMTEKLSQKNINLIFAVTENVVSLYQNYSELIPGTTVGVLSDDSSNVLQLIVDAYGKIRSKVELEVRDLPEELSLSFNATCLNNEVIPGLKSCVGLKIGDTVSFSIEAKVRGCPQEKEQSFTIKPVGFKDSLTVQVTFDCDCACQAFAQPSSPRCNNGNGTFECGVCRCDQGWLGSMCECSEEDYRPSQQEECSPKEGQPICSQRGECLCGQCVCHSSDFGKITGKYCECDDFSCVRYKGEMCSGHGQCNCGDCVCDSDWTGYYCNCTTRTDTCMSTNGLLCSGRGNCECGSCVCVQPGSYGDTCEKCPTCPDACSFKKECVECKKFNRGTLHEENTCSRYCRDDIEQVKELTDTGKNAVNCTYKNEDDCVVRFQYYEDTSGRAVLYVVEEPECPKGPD
Experiment: Mouse AlphaLISA integrin-ligand blocking assay (vitronectin)
Conditions: Table 12; read-out: IC50 Mouse integrin AlphaLISA assays mαvβ3
valueKind: pIC50
One number for each entry, as −log10 of the molar value.

Exercise: Can you share its pIC50? I mean this compound: `COc1ccc([C@H](CC(=O)O)N2CCN(CCCc3ccc4c(n3)NCCC4)C2=O)cn1`
Key: 9.05

----------
Target: hαvβ3 (Homo sapiens, UniProt P05106+P06756)
Construct: The full extracellular domains for all α and β integrin subunits; (GGGS)3 linker (C); acidic coiled-coil with cysteine (C); GG-Avitag (C); hexa-histidine tag (C); basic coiled-coil with cysteine (C); made in house; host or cells: Expi293 cells
Sequence (P06756 31-992 limits assumed): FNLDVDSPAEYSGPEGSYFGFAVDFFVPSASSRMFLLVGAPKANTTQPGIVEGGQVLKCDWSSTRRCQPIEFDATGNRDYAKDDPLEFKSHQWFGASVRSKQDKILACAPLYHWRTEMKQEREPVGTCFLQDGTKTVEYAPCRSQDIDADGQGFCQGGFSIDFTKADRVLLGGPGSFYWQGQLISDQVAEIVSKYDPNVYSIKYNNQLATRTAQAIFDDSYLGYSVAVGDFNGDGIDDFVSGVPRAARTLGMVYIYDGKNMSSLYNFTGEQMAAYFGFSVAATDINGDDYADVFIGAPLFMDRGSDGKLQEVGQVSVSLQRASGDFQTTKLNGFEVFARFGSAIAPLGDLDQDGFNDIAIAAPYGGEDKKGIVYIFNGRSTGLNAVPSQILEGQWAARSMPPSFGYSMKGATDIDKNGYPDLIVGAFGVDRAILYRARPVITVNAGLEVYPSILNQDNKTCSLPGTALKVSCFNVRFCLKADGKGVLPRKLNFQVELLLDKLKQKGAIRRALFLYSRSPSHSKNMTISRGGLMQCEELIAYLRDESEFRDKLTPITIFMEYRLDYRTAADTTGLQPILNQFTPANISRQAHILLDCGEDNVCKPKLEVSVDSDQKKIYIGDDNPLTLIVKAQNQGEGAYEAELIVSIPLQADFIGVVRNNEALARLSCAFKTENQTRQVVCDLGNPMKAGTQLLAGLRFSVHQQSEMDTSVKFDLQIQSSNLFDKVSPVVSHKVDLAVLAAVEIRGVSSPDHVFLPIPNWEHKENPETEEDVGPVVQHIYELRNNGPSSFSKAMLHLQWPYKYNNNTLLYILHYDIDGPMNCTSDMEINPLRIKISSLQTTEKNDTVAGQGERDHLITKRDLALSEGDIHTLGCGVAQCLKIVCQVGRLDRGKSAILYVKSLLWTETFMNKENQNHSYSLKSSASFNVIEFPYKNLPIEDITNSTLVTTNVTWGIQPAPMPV
Sequence (P05106 27-718 limits assumed): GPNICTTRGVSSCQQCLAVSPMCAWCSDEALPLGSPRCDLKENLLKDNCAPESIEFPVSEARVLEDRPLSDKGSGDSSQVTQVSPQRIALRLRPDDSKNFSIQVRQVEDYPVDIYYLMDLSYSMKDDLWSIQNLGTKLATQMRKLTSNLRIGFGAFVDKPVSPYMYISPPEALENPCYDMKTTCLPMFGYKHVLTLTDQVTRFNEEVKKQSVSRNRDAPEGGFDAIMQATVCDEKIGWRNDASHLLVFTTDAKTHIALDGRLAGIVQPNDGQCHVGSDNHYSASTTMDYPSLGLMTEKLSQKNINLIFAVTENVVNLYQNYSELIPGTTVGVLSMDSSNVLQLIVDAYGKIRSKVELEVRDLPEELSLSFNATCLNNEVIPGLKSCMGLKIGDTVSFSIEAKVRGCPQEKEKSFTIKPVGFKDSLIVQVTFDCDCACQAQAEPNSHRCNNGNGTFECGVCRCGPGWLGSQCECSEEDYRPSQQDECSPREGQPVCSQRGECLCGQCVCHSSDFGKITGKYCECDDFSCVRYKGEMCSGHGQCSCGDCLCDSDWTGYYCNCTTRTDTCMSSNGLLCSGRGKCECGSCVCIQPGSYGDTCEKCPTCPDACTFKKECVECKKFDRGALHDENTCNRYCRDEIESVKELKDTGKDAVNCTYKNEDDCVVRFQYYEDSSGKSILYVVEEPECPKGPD
Test: Human AlphaLISA integrin-ligand blocking assay (vitronectin)
Format: biochemical
Settings: Table 11; read-out: IC50 Human integrin AlphaLISA assays hαvβ3
valueKind: IC50 (nM)
One number for each entry, in nM.

Exercise: # get_value(readout='IC50', item= `COc1ccc([C@H](CC(=O)O)N2CCN(CCCc3ccc4c(n3)NCCC4)C2=O)cn1` )
Key: 1.6

----------
Molecular target: mαvβ1 (Mus musculus, UniProt P09055+P43406)
Construct: The full extracellular domains for all α and β integrin subunits; (GGGS)3 linker (C); acidic coiled-coil with cysteine (C); GG-Avitag (C); hexa-histidine tag (C); basic coiled-coil with cysteine (C); made in house; host or cells: Expi293 cells
Sequence (P43406 31-988 limits assumed): as the sequence (P43406 31-988 limits assumed) above
Sequence (P09055 21-728 limits assumed): as the sequence (P09055 21-728 limits assumed) above
Assay: Mouse AlphaLISA integrin-ligand blocking assay (fibronectin)
Format: biochemical
Conditions: Table 12; read-out: IC50 Mouse integrin AlphaLISA assays mαvβ1
valueKind: IC50 (nM)
One number for each entry, in nM.

Exercise: Which IC50 is listed for `COc1ccc([C@H](CC(=O)O)N2CCN(CCCc3ccc4c(n3)NCCC4)C2=O)cn1` ?
Key: 1.3

----------
Target: hαvβ1 (Homo sapiens, UniProt P05556+P06756)
Construct: The full extracellular domains for all α and β integrin subunits; (GGGS)3 linker (C); acidic coiled-coil with cysteine (C); GG-Avitag (C); hexa-histidine tag (C); basic coiled-coil with cysteine (C); made in house; host or cells: Expi293 cells
Experiment: Human AlphaLISA integrin-ligand blocking assay (fibronectin)
Assay type: biochemical
Details: Table 11; read-out: IC50 Human integrin AlphaLISA assays hαvβ1
Method: Integrin AlphaLISA assay. In the AlphaLISA integrin assays, we used a HEPES based buffer (25 mM HEPES pH 7.4, 137 mM NaCl, 1 mM MgCl2, 1 mM MnCl2, 2 mM CaCl2, 2.7 mM KCl, and 0.05% Tween 20). Optimal assay conditions were determined with a titration of the reagents for signal noise ratio (S/N), linear range, etc. For the respective integrins, we used the final concentrations described in Table 9. […]
valueKind: IC50 (nM)
Give bare numbers, in nM.

Exercise: Checklist item: IC50 tested on hαvβ1 (Homo sapiens, UniProt P05556+P06756), entry `COc1ccc([C@H](CC(=O)O)N2CCN(CCCc3ccc4c(n3)NCCC4)C2=O)cn1` , value?
Key: 1

----------
Biological target: hαvβ5 (Homo sapiens, UniProt P06756+P18084)
Construct: The full extracellular domains for all α and β integrin subunits; (GGGS)3 linker (C); acidic coiled-coil with cysteine (C); GG-Avitag (C); hexa-histidine tag (C); basic coiled-coil with cysteine (C); made in house; host or cells: Expi293 cells
Assay: Human AlphaLISA integrin-ligand blocking assay (vitronectin)
Format: biochemical
Conditions: Table 11; read-out: IC50 Human integrin AlphaLISA assays hαvβ5
valueKind: pIC50
Answers are plain numbers, as −log10 of the molar value.

Exercise: May I ask what pIC50 has been recorded for COc1ccc([C@H](CC(=O)O)N2CCN(CCCc3ccc4c(n3)NCCC4)C2=O)cn1 [MK-0429] ?
Key: 8.54

----------
Target: hαvβ3 (Homo sapiens, UniProt P05106+P06756)
Construct: The full extracellular domains for all α and β integrin subunits; (GGGS)3 linker (C); acidic coiled-coil with cysteine (C); GG-Avitag (C); hexa-histidine tag (C); basic coiled-coil with cysteine (C); made in house; host or cells: Expi293 cells
Assay: Human AlphaLISA integrin-ligand blocking assay (vitronectin)
Type: biochemical
Settings: FIG. 3D, curve-fitted; read-out: IC50 against human αvβ3, AlphaLISA
valueKind: IC50 (nM)
One number for each entry, in nM.

Exercise: Entry `COc1ccc([C@H](CC(=O)O)N2CCN(CCCc3ccc4c(n3)NCCC4)C2=O)cn1` : reported IC50 = ?
Key: 0.15

----------
Target: hαvβ6 (Homo sapiens, UniProt P06756+P18564)
Construct: The full extracellular domains for all α and β integrin subunits; (GGGS)3 linker (C); acidic coiled-coil with cysteine (C); GG-Avitag (C); hexa-histidine tag (C); basic coiled-coil with cysteine (C); made in house; host or cells: Expi293 cells
Assay: Human AlphaLISA integrin-ligand blocking assay (LAP)
Assay type: biochemical
Conditions: FIG. 3D, curve-fitted; read-out: IC50 against human αvβ6, AlphaLISA
valueKind: pIC50
One number for each entry, as −log10 of the molar value.

Exercise: Which measured pIC50 value corresponds to COc1ccc([C@H](CC(=O)O)N2CCN(CCCc3ccc4c(n3)NCCC4)C2=O)cn1 [MK-0429] ?
Key: 8.42
